Entry source: ChEMBL document CHEMBL5226308

experiment: Half life in rat liver microsomes at 200 uM incubated for 5 mins followed by NADPH addition and measured for 45 mins by LC-MS/MS analysis
Format: ADME, Microsome
stated.conditions: time 50 min
result.type: half-life at 200 µM (min)
# unit: min | format: bare number

>>> df
                                smiles_text          result_type  experimental_result
0  O=C(NC1CCCCCCC1)c1cc2ccc(C(F)(F)F)cc2[nH]1  half-life at 200 µM                 25.6

Let us examine a further case.
Exercise: half-life at 200 µM for "FC(F)(F)c1ccc2cc(CNC3CCCCCCC3)[nH]c2c1" ?
Key: 8.2
